System: NCI-H460
Assay: Growth inhibition of human NCI-H460 cells assessed as growth percentage at 10 uM incubated for 48 hrs by sulforhodamine B assay relative to control
Assay type: functional
Details: NCI-H460, 48 h, read-out: Activity
parameterMeasured: growth at 10 µM (%)
Please give a number only; it is taken to be in %.

Observe how each entry below is paired with its result.
> print(dat)
                                   compound  parametermeasured  obsvalue
1  CC1=C(C(=O)OC(C)C)C(c2ccc3c(c2)OCO3)NC(=S)N1 (racemic)    growth at 10 µM       110
2  COCCOC(=O)C1=C(C)NC(=O)NC1c1ccc2c(c1)OCO2 (racemic)    growth at 10 µM       105

# input So what does the record say about growth at 10 µM for CC(=O)N1C(=S)NC(C)=C(C(=O)OC(C)C)C1c1ccc2c(c1)OCO2 (racemic) ?
# output 110

# input Given the compound COCCOC(=O)C1=C(C)NC(=S)NC1c1ccc2c(c1)OCO2 (racemic) , what is its reported growth at 10 µM?
# output 112

# input For the compound CC1=C(C(=O)OCC(C)C)C(c2ccc3c(c2)OCO3)NC(=O)N1 (racemic) , what growth at 10 µM is on record?
# output 113

# input // returns reported growth at 10 µM for input CC(=O)C1=C(C)Nc2nc3ccccc3n2C1c1ccc2c(c1)OCO2 (racemic)
# output 112

# input Need growth at 10 µM of CC1(C)CC(=O)C2=C(C1)NC(=O)NC2c1ccc2c(c1)OCO2 (racemic) , thanks.
# output 117

# input Dear colleague, I am looking for the recorded growth at 10 µM of the following compound: CC1=C(C(=O)c2ccccc2)C(c2ccc3c(c2)OCO3)NC(=O)N1 (racemic)
# output 114

# input Would you mind telling me what growth at 10 µM value was observed for CC(=O)C1=C(C)NC(=O)NC1c1ccc2c(c1)OCO2 (racemic) ?
# output 114

# input Please give the measured growth at 10 µM for this compound: CC1=C(C(=O)OCc2ccccc2)C(c2ccc3c(c2)OCO3)NC(=S)N1 (racemic)
# output 96.7

# input Need growth at 10 µM of COCCOC(=O)C1=C(C)NC(=S)N(C(C)=O)C1c1ccc2c(c1)OCO2 (racemic) , thanks.
# output 104

# input Item under review: O=C1NC2=C(C(=O)c3ccccc32)C(c2ccc3c(c2)OCO3)N1 (racemic) . Reported growth at 10 µM?
# output 113

# input Fill blank: measured growth at 10 µM of the compound CC1=C(C(=O)OCc2ccccc2)C(c2ccc3c(c2)OCO3)NC(=O)N1 (racemic) is ____.
# output 109

# input // query growth at 10 µM value for entry CC(=O)N1C(=S)NC(C)=C(C(=O)OCC(C)C)C1c1ccc2c(c1)OCO2 (racemic)
# output 105
